Listed here are compounds together with their documented inhibition at 1 µM.
Biological target: ABHD6 (Mus musculus (Mouse), UniProt Q8R2Y0)
Sequence (Q8R2Y0 whole entry): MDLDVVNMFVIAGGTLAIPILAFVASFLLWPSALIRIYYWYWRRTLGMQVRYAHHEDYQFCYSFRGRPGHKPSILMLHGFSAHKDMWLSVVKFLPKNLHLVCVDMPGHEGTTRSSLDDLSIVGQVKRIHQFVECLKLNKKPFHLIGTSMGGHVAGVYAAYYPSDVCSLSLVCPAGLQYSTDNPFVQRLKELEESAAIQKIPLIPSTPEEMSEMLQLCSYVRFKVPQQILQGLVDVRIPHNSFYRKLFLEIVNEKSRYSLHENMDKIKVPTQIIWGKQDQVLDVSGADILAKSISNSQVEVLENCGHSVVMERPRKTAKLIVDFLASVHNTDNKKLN
Test: In vitro competitive activity-based protein profiling (mouse brain membrane fraction or cell lysates), ABHD6 band
Assay type: biochemical
Conditions: 1 μM, mouse proteome; read-out: ABHD6 % Inh 1 μM (mouse)

Below, each entry is followed by its recorded inhibition at 1 µM result.
[
  {
    "Compound": "CS(=O)(=O)NC1CCN(c2cc(C(F)(F)F)ccc2CN2CCCC23CCN(C(=O)OC(C(F)(F)F)C(F)(F)F)CC3)CC1 [Example 94]",
    "inhibition at 1 µM": "< 25%"
  },
  {
    "Compound": "Cc1cc(CN2CCCC23CCN(C(=O)OC(C(F)(F)F)C(F)(F)F)CC3)ccc1C(F)(F)F [Example 177]",
    "inhibition at 1 µM": "25 to 75%"
  }
]

Which inhibition at 1 µM reading was recorded for the compound O=C(OC(C(F)(F)F)C(F)(F)F)N1CCC2(CCN(Cc3ccc4c(c3)COC4)C2)CC1 [Example 153] ?
≥ 75%

Which inhibition at 1 µM reading was recorded for the compound O=C(OC(C(F)(F)F)C(F)(F)F)N1CCC2(CCN(Cc3cccc(Cl)c3N3CCC(F)CC3)C2)CC1 [Example 65] ?
25 to 75%

Which inhibition at 1 µM reading was recorded for the compound Cc1c(CN2CCCC23CCN(C(=O)OC(C(F)(F)F)C(F)(F)F)CC3)cccc1N1CCCC1 [Example 85] ?
< 25%

Which inhibition at 1 µM reading was recorded for the compound CC1(C)CC2(CCN(C(=O)OC(C(F)(F)F)C(F)(F)F)CC2)CN1Cc1cccc(Cl)c1N1CCOCC1 [Example 54] ?
< 25%

Which inhibition at 1 µM reading was recorded for the compound CC(=O)N1CCCc2cccc(CN3CCCC34CCN(C(=O)OC(C(F)(F)F)C(F)(F)F)CC4)c21 [Example 142] ?
< 25%

====

Molecular target: ABHD6 (Mus musculus (Mouse), UniProt Q8R2Y0)
Assay: In vitro competitive activity-based protein profiling (mouse brain membrane fraction or cell lysates), ABHD6 band
Format: biochemical
Details: mouse proteome, competitive ABPP
pIC50: −log10 of the molar value.
Listed here are compounds together with their documented pIC50.

Below, each entry is followed by its recorded pIC50 result.
[
  {
    "Compound": "O=C(OC(C(F)(F)F)C(F)(F)F)N1CCC2(CCCN2Cc2cc(N3CCC(C(F)(F)F)CC3)cc(C(F)(F)F)c2)CC1",
    "pIC50": "< 6.00"
  },
  {
    "Compound": "O=C(OC(C(F)(F)F)C(F)(F)F)N1CCC2(CCCN2Cc2ccc(N3CCOCC3)c(C(F)(F)F)c2)CC1",
    "pIC50": "< 6.00"
  },
  {
    "Compound": "O=C(OC(C(F)(F)F)C(F)(F)F)N1CCC2(CCN(Cc3ccc(Cl)cc3N3CC4COCC4C3)C2)CC1 (stereo not shown)",
    "pIC50": "6.00 to 7.00"
  }
]

API: the following record is the query input.
Which pIC50 reading was recorded for the compound O=C(OC(C(F)(F)F)C(F)(F)F)N1CCC2(CCCN2Cc2ccc(C(F)(F)F)cc2N2CCN(CCF)CC2)CC1 ?
< 6.00

====

Listed here are molecules together with their documented IC50.
Biological target: MAGL (Mus musculus (Mouse))
Sequence (O35678 whole entry): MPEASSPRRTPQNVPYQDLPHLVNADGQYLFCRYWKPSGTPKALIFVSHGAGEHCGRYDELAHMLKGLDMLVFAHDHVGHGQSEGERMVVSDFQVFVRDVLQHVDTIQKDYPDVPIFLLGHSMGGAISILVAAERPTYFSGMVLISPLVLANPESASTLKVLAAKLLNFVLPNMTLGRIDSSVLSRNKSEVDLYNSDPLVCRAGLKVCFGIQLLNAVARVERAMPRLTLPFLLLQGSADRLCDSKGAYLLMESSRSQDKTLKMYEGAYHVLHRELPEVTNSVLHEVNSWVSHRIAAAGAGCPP
Experiment: In vitro competitive activity-based protein profiling (mouse brain membrane fraction or cell lysates), MAGL band
Assay type: biochemical
Details: mouse proteome, competitive ABPP
Protocol: In Vitro Competitive Activity-Based Protein Profiling. Proteomes (mouse brain membrane fraction or cell lysates) (50 μL, 1.0 mg/mL total protein concentration) were preincubated with varying concentrations of inhibitors at 37° C. After 30 min, FP—Rh (1.0 μL, 50 μM in DMSO) was added and the mixture was incubated for another 30 min at 37° C. Reactions were quenched with SDS loading buffer (50 μL-4×) and run on SDS-PAGE.

Below, each entry is followed by its recorded IC50 result.
[
  {
    "Smiles Code": "O=C(OC(C(F)(F)F)C(F)(F)F)N1CCC2(CCCN2Cc2cccc(OCCN3CCOCC3)c2)CC1",
    "Study Target": "MAGL (Mus musculus (Mouse))",
    "Result": "100 to 1000 nM"
  },
  {
    "Smiles Code": "O=C(O)C1CCN(c2cc(C(F)(F)F)ccc2CN2CCCC23CCN(C(=O)OC(C(F)(F)F)C(F)(F)F)CC3)CC1",
    "Study Target": "MAGL (Mus musculus (Mouse))",
    "Result": "< 100 nM"
  },
  {
    "Smiles Code": "CCN1CCc2cccc(CN3CCCC34CCN(C(=O)OC(C(F)(F)F)C(F)(F)F)CC4)c2C1",
    "Study Target": "MAGL (Mus musculus (Mouse))",
    "Result": "100 to 1000 nM"
  },
  {
    "Smiles Code": "CCN1CCCc2cccc(CN3CCCC34CCN(C(=O)OC(C(F)(F)F)C(F)(F)F)CC4)c21",
    "Study Target": "MAGL (Mus musculus (Mouse))",
    "Result": "100 to 1000 nM"
  }
]

Which IC50 reading was recorded for the molecule O=C(OC(C(F)(F)F)C(F)(F)F)N1CCC2(CCCN2Cc2cccc(OCCF)c2)CC1 ?
100 to 1000 nM

Which IC50 reading was recorded for the molecule O=C(OC(C(F)(F)F)C(F)(F)F)N1CCC2(CCCN2Cc2ccc(C(F)(F)F)cc2OC2CCS(=O)(=O)CC2)CC1 ?
< 100 nM

Which IC50 reading was recorded for the molecule CC(=O)NC1CCN(c2cc(Cl)ccc2CN2CCCC23CCN(C(=O)OC(C(F)(F)F)C(F)(F)F)CC3)CC1 ?
< 100 nM
